# study system: T1, LRRC15 (leucine-rich repeat-containing protein 15) (human, UniProt Q8TF66 22-538, limits assumed)
# T1 construct: The KD sentences say only 'LRRC15'; also called human LRRC15
# T1 sequence (looked up): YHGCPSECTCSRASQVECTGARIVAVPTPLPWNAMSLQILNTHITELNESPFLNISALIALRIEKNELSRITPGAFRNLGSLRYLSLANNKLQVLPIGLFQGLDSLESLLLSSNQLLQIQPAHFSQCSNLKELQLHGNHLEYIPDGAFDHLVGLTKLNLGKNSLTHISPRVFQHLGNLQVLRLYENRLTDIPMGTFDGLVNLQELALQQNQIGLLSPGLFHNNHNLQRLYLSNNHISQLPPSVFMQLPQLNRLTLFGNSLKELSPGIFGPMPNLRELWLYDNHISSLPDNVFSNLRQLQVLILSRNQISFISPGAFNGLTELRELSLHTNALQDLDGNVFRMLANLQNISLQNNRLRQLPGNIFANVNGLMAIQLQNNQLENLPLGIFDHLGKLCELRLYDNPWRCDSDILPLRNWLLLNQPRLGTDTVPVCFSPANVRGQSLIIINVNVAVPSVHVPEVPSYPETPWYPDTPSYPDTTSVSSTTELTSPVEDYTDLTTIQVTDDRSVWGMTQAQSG
# assay info: binding analysis (koff and/or KD) of mAb expressed in CHO cells; method not named
metric name: Kd

{"binder": "hzF36 VHv6.2 (D54Q) / hzF36 VLv1 (antibody, V domains shown) VH: QVQLVQSGAEVKKPGASVKVSCKASGYTFTSFVIHWVRQAPGQGLEWMGYIYNQGTKYNERFRGRATLTSDKSTSTVYMELSSLRSEDTAVYYCARDYYFDYWGQGTLVTVSS VL: DIVMTQSPDSLAVSLGERATINCRASESVDYYGISFMNWYQQKPGQPPKLLIYAASNQGSGVPDRFSGSGSGTDFTLTISSLQAEDVAVYYCQQSKEVPYTFGGGTKVEIK", "metric name": "Kd", "reported value": "340 pM"}
{"binder": "hzK713 VHv2 (N55Q) / hzK713 VLv1 (antibody, V domains shown, The KD sentence prints 'hzJ48 VHv2-v4', read as hzK713 VHv2-v4; also called printed in the KD sentence as hzJ48 VHv2 with hzK713 VLv1) VH: QVQLVQSGAEVKKPGASVKVSCKASGYTFTDYYMNWVRQAPGQRLEWMGRVSPSQGGTNYNQKFRGRVTITRDTSASTAYMELSSLRSEDTAVYYCARRGAGYSYYAMDYWGQGTTVTVSS VL: DIVMTQSPDSLAVSLGERATINCRASESVDSYGNSLMYWYQQKPGQPPKLLIYLASNLESGVPDRFSGSGSGTDFTLTISSLQAEDVAVYYCQQNNEDPLTFGGGTKVEIK", "metric name": "Kd", "reported value": "307 pM"}
{"binder": "hzF36 VHv6 / hzF36 VLv1.1 (M4L) (antibody, V domains shown, also called parent heavy chain hzF36 VHv6 in combination with light chain hzF36 VLv1.1) VH: QVQLVQSGAEVKKPGASVKVSCKASGYTFTSFVIHWVRQAPGQGLEWMGYIYNDGTKYNERFRGRATLTSDKSTSTVYMELSSLRSEDTAVYYCARDYYFDYWGQGTLVTVSS VL: DIVLTQSPDSLAVSLGERATINCRASESVDYYGISFMNWYQQKPGQPPKLLIYAASNQGSGVPDRFSGSGSGTDFTLTISSLQAEDVAVYYCQQSKEVPYTFGGGTKVEIK", "metric name": "Kd", "reported value": "330 pM"}
{"binder": "hzF36 VHv6.4 (G55A) / hzF36 VLv1 (antibody, V domains shown) VH: QVQLVQSGAEVKKPGASVKVSCKASGYTFTSFVIHWVRQAPGQGLEWMGYIYNDATKYNERFRGRATLTSDKSTSTVYMELSSLRSEDTAVYYCARDYYFDYWGQGTLVTVSS VL: DIVMTQSPDSLAVSLGERATINCRASESVDYYGISFMNWYQQKPGQPPKLLIYAASNQGSGVPDRFSGSGSGTDFTLTISSLQAEDVAVYYCQQSKEVPYTFGGGTKVEIK", "metric name": "Kd", "reported value": "320 pM"}
{"binder": "hzJ48 VHv3 / hzJ48 VLv1.1 (N92S) (antibody, V domains shown, Human IgG1 or IgG1null and human kappa constant regions) VH: QVQLVQSGAEVKKPGASVKVSCKASGYTFTDYYINWVRQAPGQGLEWMGWIYPGSGNTKYAQKFQGRVTMTRDTSTSTVYMELSSLRSEDTAVYYCARWGYGAYFTYWGQGTLVTVSS VL: DIQMTQSPSSLSASVGDRVTITCKASQNVGINVAWYQQKPGKAPKLLIYSASYRSSGVPSRFSGSGSGTDFTLTISSLQPEDFATYYCQQYSSFPYTFGGGTKVEIK", "metric name": "Kd", "reported value": "1700 pM"}

Value source: patent WO2021102332A1
